target: mGluR5 (Homo sapiens, UniProt P41594)
Sequence (P41594 21-1212): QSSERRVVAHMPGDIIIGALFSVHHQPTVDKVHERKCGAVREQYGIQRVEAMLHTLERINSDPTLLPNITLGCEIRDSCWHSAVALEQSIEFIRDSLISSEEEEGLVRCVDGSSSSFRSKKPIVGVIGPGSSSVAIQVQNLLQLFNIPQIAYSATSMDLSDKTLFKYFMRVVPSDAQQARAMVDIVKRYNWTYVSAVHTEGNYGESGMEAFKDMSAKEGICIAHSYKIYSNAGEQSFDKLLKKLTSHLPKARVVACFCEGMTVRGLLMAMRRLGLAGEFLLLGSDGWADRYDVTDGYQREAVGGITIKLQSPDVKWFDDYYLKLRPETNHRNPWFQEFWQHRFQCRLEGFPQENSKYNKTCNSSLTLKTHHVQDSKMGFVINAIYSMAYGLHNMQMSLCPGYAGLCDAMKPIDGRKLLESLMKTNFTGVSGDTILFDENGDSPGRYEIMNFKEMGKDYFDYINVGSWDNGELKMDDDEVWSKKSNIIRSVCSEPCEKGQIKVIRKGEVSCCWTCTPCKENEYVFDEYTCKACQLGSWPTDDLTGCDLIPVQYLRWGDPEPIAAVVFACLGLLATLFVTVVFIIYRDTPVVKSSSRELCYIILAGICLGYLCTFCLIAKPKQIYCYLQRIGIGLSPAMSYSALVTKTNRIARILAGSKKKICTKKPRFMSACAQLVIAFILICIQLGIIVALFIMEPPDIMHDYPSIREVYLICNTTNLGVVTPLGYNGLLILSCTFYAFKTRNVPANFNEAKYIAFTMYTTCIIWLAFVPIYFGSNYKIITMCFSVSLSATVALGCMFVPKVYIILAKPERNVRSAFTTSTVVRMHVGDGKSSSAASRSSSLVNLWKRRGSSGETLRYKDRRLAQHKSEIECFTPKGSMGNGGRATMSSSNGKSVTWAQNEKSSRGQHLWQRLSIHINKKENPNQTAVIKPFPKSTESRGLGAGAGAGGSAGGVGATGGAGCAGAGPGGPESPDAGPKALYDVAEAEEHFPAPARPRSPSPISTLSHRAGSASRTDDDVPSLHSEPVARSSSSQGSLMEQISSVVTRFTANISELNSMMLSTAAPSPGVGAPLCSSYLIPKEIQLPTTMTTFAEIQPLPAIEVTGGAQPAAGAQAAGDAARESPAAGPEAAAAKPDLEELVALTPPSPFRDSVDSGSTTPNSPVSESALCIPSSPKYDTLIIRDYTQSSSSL
assay text: mGluR5 positive allosteric modulator (PAM) functional assay
pEC50: −log10 of the molar value.
readout: pEC50

Here's what some known entries look like.
compound	pEC50
CCC(NC)c1nc(-c2ccc(C#Cc3cccc(F)c3)cn2)no1 (stereo not drawn) [Compound 115]	7.00 to 7.52
CCN(C)c1nc(-c2ccc(C#Cc3cccc(F)c3)cc2)no1 [Compound 61]	6.00 to 6.52
CCC(C)c1nc(-c2ccc(C#Cc3cccc(F)c3)nc2)no1 (stereo not drawn) [Compound 82]	7.00 to 7.52
CC1(c2nc(-c3ccc(C#Cc4cccc(F)c4)cn3)no2)CCCN1 (stereo not drawn) [Compound 122]	6.52 to 7.00
CC(c1nc(-c2ccc(C#Cc3ccncc3)cc2)no1)N(C)C (stereo not drawn) [Compound 80]	≥ 7.52
Fc1cccc(C#Cc2ccc(-c3noc(C4CCCO4)n3)cc2)c1 (stereo not drawn) [Compound 39]	6.00 to 6.52
CN1C[C@H](O)C[C@H]1c1nc(-c2ccc(C#Cc3cccc(F)c3)cn2)no1 [Compound 130]	7.00 to 7.52
CCC(C)c1nc(-c2ccc(C#Cc3cccc(F)c3)cc2)no1 (stereo not drawn) [Compound 29]	6.52 to 7.00

Looking up CC[C@H](C)c1nc(-c2ccc(C#Cc3ccncc3)cc2)no1 (single isomer, unassigned) [Compound 72] , I found its pEC50 recorded as 6.52 to 7.00

The compound CCOC(=O)NC(CC)c1nc(-c2ccc(C#Cc3ccccn3)cn2)no1 (stereo not drawn) [Compound 146] showed pEC50 equal to 6.52 to 7.00

Quick note, pEC50 for Fc1cccc(C#Cc2ccc(-c3noc(C4CCCN4)n3)nc2)c1 (stereo in doubt) [Compound 120] landed at 6.52 to 7.00

###

Overview of reported EC50 across a group of compounds:
target: mGluR5 (Homo sapiens, UniProt P41594)
assay text: mGluR5 positive allosteric modulator (PAM) functional assay

Please review the entries below; each comes with its answer.
compound	EC50
C(#Cc1ccccn1)c1ccc(-c2noc(C3CCCC3)n2)nc1	30 to 100 nM
CC[C@@H](C)c1nc(-c2ccc(C#Cc3cccc(F)c3)cc2)no1 (single isomer, unassigned)	300 to 1000 nM
CCC(CC)c1nc(-c2ccc(C#Cc3ccncc3)cn2)no1	30 to 100 nM

Here is the next item to consider.
Measured EC50 (mGluR5 (Homo sapiens, UniProt P41594)), entry CC(C)N1CCCC1c1nc(-c2ccc(C#Cc3cccc(F)c3)cc2)no1 (stereo not shown) : 300 to 1000 nM

###

target: UniProt P41594
assay text: mGluR5 positive allosteric modulator (PAM) functional assay
readout: EC50

As a guide, the following entries are already answered.
compound	measured
CC[C@@H](C)c1nc(-c2ccc(C#Cc3ccncc3)cc2)no1 (single isomer, unassigned) [Compound 73]	30 to 100 nM
CC(C)(C)OC(=O)N1CCC1c1nc(-c2ccc(C#Cc3cccc(F)c3)cn2)no1 (stereo not shown) [Compound 99]	300 to 1000 nM
Fc1cccc(C#Cc2ccc(-c3nnc(C4CCCC4)o3)cc2)c1 [Compound 1]	300 to 1000 nM

# ---- query compound ----
So the reported EC50 for O[C@H]1CN[C@H](c2nc(-c3ccc(C#Cc4cccc(F)c4)cn3)no2)C1 [Compound 129] , on UniProt P41594, turned out to be 300 to 1000 nM

From: patent US10533000B2
